# Test system: Trichophyton rubrum CBS.30338
# Run Description: minimal inhibitory concentration in Sabouraud medium
# Type: cell-based
# Protocol Conditions: Trichophyton rubrum, CBS.30338, 288 h, 288 hours
Measured log10 of MIC values are reported for all entries that follow.
Property: log10 of MIC (log10 of the value in µg/mL)

1. O=C1CC(S(=O)(=O)C2CCCCC2)C(=O)N1c1ccc([N+](=O)[O-])cc1 (stereo not shown) :: 2.18
2. O=C1CC(S(=O)(=O)C2CCCCC2)C(=O)N1c1ccccc1 (stereo not shown) :: 1.00
3. O=C1CC(S(=O)(=O)C2CCCCC2)C(=O)N1c1ccccc1Cl (stereo not shown) :: 1.00
4. O=C1CC(S(=O)(=O)C2CCCCC2)C(=O)N1 (stereo not shown) :: 1.88
5. Cc1ccc(N2C(=O)CC(S(=O)(=O)C3CCCCC3)C2=O)cc1 (stereo not shown) :: 0.70
6. O=C1CC(S(=O)(=O)C2CCCCC2)C(=O)N1c1cccc([N+](=O)[O-])c1 (stereo not shown) :: 0.70
7. O=C1CC(S(=O)(=O)C2CCCCC2)C(=O)N1c1cccc(Cl)c1 (stereo not shown) :: 0.40
8. Cc1ccccc1N1C(=O)CC(S(=O)(=O)C2CCCCC2)C1=O (stereo not shown) :: 1.70
9. Cc1cccc(N2C(=O)CC(S(=O)(=O)C3CCCCC3)C2=O)c1 (stereo not shown) :: 1.40
10. O=C1CC(S(=O)(=O)C2CCCCC2)C(=O)N1c1ccccc1[N+](=O)[O-] (stereo not shown) :: 1.88
11. COc1ccc(N2C(=O)CC(S(=O)(=O)C3CCCCC3)C2=O)cc1 (stereo not shown) :: 1.00
12. CC(=O)c1ccc(N2C(=O)CC(S(=O)(=O)C3CCCCC3)C2=O)cc1 (stereo not shown) :: 1.70
13. COC(=O)c1ccc(N2C(=O)CC(S(=O)(=O)C3CCCCC3)C2=O)cc1OC(C)=O (stereo not shown) :: 1.70

====

# Tested on: Penicillium digitatum CBS.31948
# Run Description: minimal inhibitory concentration in Sabouraud medium
# Type: cell-based
# Protocol Conditions: Penicillium digitatum, CBS.31948, 72 h, 72 hours
Property: MIC (µg/mL)

1. O=C1CC(S(=O)(=O)C2CCCCC2)C(=O)N1c1ccccc1[N+](=O)[O-] (stereo not shown) :: 25
2. COc1ccc(N2C(=O)CC(S(=O)(=O)C3CCCCC3)C2=O)cc1 (stereo not shown) :: 100
3. O=C1CC(S(=O)(=O)C2CCCCC2)C(=O)N1c1ccccc1Cl (stereo not shown) :: 25
4. COC(=O)c1ccc(N2C(=O)CC(S(=O)(=O)C3CCCCC3)C2=O)cc1OC(C)=O (stereo not shown) :: 50
5. O=C1CC(S(=O)(=O)C2CCCCC2)C(=O)N1c1cccc(Cl)c1 (stereo not shown) :: 10
6. O=C1CC(S(=O)(=O)C2CCCCC2)C(=O)N1c1ccc([N+](=O)[O-])cc1 (stereo not shown) :: 100
7. Cc1cccc(N2C(=O)CC(S(=O)(=O)C3CCCCC3)C2=O)c1 (stereo not shown) :: 10
8. O=C1CC(S(=O)(=O)C2CCCCC2)C(=O)N1c1cccc([N+](=O)[O-])c1 (stereo not shown) :: 25
9. CC(=O)c1ccc(N2C(=O)CC(S(=O)(=O)C3CCCCC3)C2=O)cc1 (stereo not shown) :: 75
10. O=C1CC(S(=O)(=O)C2CCCCC2)C(=O)N1c1ccccc1 (stereo not shown) :: 10
11. Cc1ccc(N2C(=O)CC(S(=O)(=O)C3CCCCC3)C2=O)cc1 (stereo not shown) :: 10
12. Cc1ccccc1N1C(=O)CC(S(=O)(=O)C2CCCCC2)C1=O (stereo not shown) :: 10
13. O=C1CC(S(=O)(=O)C2CCCCC2)C(=O)N1 (stereo not shown) :: 50
